Where do these numbers come from? They come from patent US8962641B2.

- Target or test system: human ACC2 (Homo sapiens (Human), UniProt O00763)
- Sequence (O00763 129-2458): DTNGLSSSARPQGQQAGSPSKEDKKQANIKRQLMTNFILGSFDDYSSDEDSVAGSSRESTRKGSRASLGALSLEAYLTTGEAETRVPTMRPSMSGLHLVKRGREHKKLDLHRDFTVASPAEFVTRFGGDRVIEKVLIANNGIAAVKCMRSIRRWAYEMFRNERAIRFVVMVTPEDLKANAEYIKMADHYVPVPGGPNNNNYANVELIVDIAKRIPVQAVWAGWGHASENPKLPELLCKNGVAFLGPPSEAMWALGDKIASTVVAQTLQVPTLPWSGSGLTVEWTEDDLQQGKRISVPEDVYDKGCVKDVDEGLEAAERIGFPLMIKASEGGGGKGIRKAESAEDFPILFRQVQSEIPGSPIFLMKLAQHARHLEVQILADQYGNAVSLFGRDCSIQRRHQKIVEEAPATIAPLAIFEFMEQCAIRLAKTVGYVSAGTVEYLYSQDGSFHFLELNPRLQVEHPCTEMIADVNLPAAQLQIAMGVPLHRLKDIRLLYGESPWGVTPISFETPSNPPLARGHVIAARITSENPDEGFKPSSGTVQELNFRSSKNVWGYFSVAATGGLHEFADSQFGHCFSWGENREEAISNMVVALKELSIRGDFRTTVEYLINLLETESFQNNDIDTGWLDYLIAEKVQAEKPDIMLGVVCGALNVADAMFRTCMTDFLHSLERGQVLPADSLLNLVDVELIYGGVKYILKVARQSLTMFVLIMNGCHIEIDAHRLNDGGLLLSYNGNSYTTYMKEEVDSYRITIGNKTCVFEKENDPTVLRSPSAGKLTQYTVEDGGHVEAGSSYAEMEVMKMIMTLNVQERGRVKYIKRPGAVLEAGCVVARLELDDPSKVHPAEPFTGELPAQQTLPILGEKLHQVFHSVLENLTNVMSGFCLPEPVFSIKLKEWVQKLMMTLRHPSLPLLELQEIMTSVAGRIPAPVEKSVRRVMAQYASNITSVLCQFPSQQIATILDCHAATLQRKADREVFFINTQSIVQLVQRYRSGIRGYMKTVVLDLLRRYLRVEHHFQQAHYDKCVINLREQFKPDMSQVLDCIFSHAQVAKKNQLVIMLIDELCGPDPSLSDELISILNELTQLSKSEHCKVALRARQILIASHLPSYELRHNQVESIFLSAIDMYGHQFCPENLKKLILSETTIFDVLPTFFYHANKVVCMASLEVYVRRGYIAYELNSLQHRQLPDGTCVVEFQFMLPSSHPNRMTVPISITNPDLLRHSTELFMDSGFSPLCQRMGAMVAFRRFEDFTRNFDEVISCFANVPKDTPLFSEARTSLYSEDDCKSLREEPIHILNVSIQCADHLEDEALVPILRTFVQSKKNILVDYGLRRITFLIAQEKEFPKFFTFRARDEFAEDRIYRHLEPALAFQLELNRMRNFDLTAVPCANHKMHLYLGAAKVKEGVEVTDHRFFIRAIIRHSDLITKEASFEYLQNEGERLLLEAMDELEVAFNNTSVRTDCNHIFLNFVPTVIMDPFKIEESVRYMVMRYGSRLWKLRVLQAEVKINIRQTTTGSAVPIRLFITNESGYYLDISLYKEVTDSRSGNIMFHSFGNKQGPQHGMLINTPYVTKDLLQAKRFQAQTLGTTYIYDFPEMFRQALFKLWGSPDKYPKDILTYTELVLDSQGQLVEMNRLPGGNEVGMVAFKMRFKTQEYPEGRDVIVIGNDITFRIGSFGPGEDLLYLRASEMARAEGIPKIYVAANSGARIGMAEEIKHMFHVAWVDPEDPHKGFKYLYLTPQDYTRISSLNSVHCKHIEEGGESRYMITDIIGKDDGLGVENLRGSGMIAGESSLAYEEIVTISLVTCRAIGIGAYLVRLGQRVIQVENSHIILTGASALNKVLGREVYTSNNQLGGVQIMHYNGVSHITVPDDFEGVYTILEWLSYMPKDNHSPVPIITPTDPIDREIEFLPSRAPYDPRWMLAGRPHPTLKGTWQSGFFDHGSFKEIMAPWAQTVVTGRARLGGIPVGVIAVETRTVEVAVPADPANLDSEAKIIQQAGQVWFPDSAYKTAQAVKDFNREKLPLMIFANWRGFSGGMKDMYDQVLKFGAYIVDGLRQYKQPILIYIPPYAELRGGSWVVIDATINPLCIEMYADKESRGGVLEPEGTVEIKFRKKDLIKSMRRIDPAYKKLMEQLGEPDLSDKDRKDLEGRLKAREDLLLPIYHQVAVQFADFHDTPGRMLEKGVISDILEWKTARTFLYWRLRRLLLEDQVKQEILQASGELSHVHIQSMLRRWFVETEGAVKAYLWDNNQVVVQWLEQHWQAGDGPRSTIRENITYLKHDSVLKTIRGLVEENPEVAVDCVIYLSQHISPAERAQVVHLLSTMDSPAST
- Experimental details: ACC2 assay (spectrophotometric 384 well assay, NADH-linked kinetic method)
- Format: biochemical
- Measurement conditions: hACC2 construct lacking 128 N-terminal amino acids; coupled lactate dehydrogenase/pyruvate kinase reaction, 340 nm, 25° C.
// NB: equality with 200 nM counts as NOT MET; only IC50 strictly below is MET

| Molecule | Target or test system | Discrete label |
| --- | --- | --- |
| CC(=O)N[C@@H](C)c1ccc(O[C@@H]2CCN(c3nc(N4CCCCC4)ncc3Cl)C2)cc1 [Example 8.127] | human ACC2 (Homo sapiens (Human), UniProt O00763) | MET |
| COCCN(C)c1ncc(F)c(N2CC[C@@H](Oc3ccc([C@H](C)NC(C)=O)cc3)C2)n1 [Example 8.66] | human ACC2 (Homo sapiens (Human), UniProt O00763) | MET |
| Cc1nocc1C(=O)N[C@@H](C)c1ccc(OC2CCN(c3ccnc(N4CCOCC4)n3)C2)cc1 (stereo partly shown) [Example 2.4] | human ACC2 (Homo sapiens (Human), UniProt O00763) | NOT MET |
| CC(=O)N[C@@H](C)c1ccc(O[C@@H]2CCN(c3nc(N4CCCC4)ncc3Cl)C2)cc1 [Example 8.50] | human ACC2 (Homo sapiens (Human), UniProt O00763) | MET |
| CC(=O)N[C@@H](C)c1ccc(O[C@@H]2CCN(c3nc(NC4(C)CCCC4)ncc3F)C2)cc1 [Example 8.36] | human ACC2 (Homo sapiens (Human), UniProt O00763) | NOT MET |
| CC(=O)N[C@@H](C)c1ccc(O[C@@H]2CCN(c3nc(N(CCO)C4CC4)ncc3F)C2)cc1 [Example 8.288] | human ACC2 (Homo sapiens (Human), UniProt O00763) | NOT MET |
| CCC(=O)N[C@@H](C)c1ccc(OC2CCN(c3ncnc(OCC4CC4)c3F)C2)cc1 (stereo partly shown) [Example 2.23] | human ACC2 (Homo sapiens (Human), UniProt O00763) | MET |

====

- Target or test system: human ACC2 (Homo sapiens (Human), UniProt O00763)
- Experimental details: ACC2 assay (spectrophotometric 384 well assay, NADH-linked kinetic method)
- Assay type: biochemical
- Measurement conditions: hACC2 construct lacking 128 N-terminal amino acids; coupled lactate dehydrogenase/pyruvate kinase reaction, 340 nm, 25° C.
pIC50: −log10 of the molar value.
Label rule, in plain words: pIC50 of 7 and up is satisfied, under 7 is not satisfied.

| Molecule | Discrete label |
| --- | --- |
| CC(=O)N[C@@H](C)c1ccc(O[C@@H]2CCN(c3ncnc(OCC4CC4(F)F)c3Cl)C2)cc1 (stereo partly drawn) | satisfied |
| CCOC(=O)N[C@@H](C)c1ccc(OC2CCN(c3ccnc(N4CCOCC4)n3)C2)cc1 (stereo partly drawn) | not satisfied |
| CC(=O)N[C@@H](C)c1ccc(O[C@@H]2CCN(c3ncnc(N4CC[C@@H](C)C4)c3F)C2)cc1 | satisfied |
| C[C@H](NC(=O)c1ccns1)c1ccc(OC2CCN(c3ccnc(N4CCOCC4)n3)C2)cc1 (stereo partly drawn) | not satisfied |
| CC(=O)N[C@@H](C)c1ccc(O[C@@H]2CCN(c3ncnc(OCC4CC4)c3F)C2)cc1 | satisfied |
| CO[C@@H]1CCN(c2ncnc(N3CC[C@@H](Oc4ccc([C@H](C)NC(C)=O)cc4)C3)c2F)C1 | not satisfied |
| CC(=O)N[C@@H](C)c1ccc(O[C@@H]2CCN(c3nc(OCC(F)F)ncc3F)C2)cc1 | not satisfied |
| COCCCN(C)c1ncnc(N2CC[C@@H](Oc3ccc([C@H](C)NC(C)=O)cc3)C2)c1F | not satisfied |
| CC(=O)N[C@@H](C)c1ccc(O[C@@H]2CCN(c3ncnc(N4CCOC(C)(C)C4)c3F)C2)cc1 | not satisfied |
| CCOc1ncc(F)c(N2CC[C@@H](Oc3ccc([C@H](C)NC(C)=O)cc3)C2)n1 | not satisfied |

====

- Target or test system: human ACC2 (Homo sapiens (Human), UniProt O00763)
- Experimental details: ACC2 assay (spectrophotometric 384 well assay, NADH-linked kinetic method)
- Format: biochemical
- Measurement conditions: hACC2 construct lacking 128 N-terminal amino acids; coupled lactate dehydrogenase/pyruvate kinase reaction, 340 nm, 25° C.
Overview of recorded IC50 for various molecules
Measured endpoint: IC50 (nM)

| Molecule | Target or test system | Numeric value |
| --- | --- | --- |
| COC1CCCN(c2ncc(F)c(N3CC[C@@H](Oc4ccc([C@H](C)NC(C)=O)cc4)C3)n2)C1 (stereo partly shown) | human ACC2 (Homo sapiens (Human), UniProt O00763) | 183 |
| CC(=O)N[C@@H](C)c1ccc(O[C@@H]2CCN(c3nc(N4CCC(CO)C4)ncc3F)C2)cc1 (stereo partly shown) | human ACC2 (Homo sapiens (Human), UniProt O00763) | 807 |
| CC(=O)N[C@@H](C)c1ccc(O[C@@H]2CCN(c3nc(N4CC[C@H](O)C4)ncc3F)C2)cc1 | human ACC2 (Homo sapiens (Human), UniProt O00763) | 937 |
| CC(=O)N[C@@H](C)c1ccc(O[C@@H]2CCN(c3nc(N4CC(C)C4)ncc3Cl)C2)cc1 | human ACC2 (Homo sapiens (Human), UniProt O00763) | 355 |

====

- Target or test system: human ACC2 (Homo sapiens (Human), UniProt O00763)
- Experimental details: ACC2 assay (spectrophotometric 384 well assay, NADH-linked kinetic method)
- Format: biochemical
- Measurement conditions: hACC2 construct lacking 128 N-terminal amino acids; coupled lactate dehydrogenase/pyruvate kinase reaction, 340 nm, 25° C.
pIC50: −log10 of the molar value.

| Compound | pIC50 |
| --- | --- |
| CCCNc1ncnc(N2CC[C@@H](Oc3ccc([C@H](C)NC(=O)c4sc(NC(=O)CC)nc4C)cc3)C2)c1OC | 6.13 |
| CC(=O)N[C@@H](C)c1ccc(O[C@@H]2CCN(c3nc(N(C)CCC(C)(C)O)ncc3F)C2)cc1 | 5.97 |
| CCNc1ncnc(N2CC[C@@H](Oc3ccc([C@H](C)NC(C)=O)cc3)C2)c1F | 5.61 |
| COCC(=O)N[C@@H]1CC[C@H](C(=O)N[C@@H](C)c2ccc(O[C@@H]3CCN(c4ncnc(OCC5CC5)c4F)C3)cc2)C1 | 6.76 |
| CC(=O)N[C@@H](C)c1ccc(O[C@@H]2CCN(c3ncnc(N4CC(F)(F)C4)c3Cl)C2)cc1 | 6.94 |
| CC(=O)N[C@@H](C)c1ccc(O[C@@H]2CCN(c3ccnc(N4CCC5(CC5)C4)n3)C2)cc1 | 6.81 |
| CC(=O)N[C@@H](C)c1ccc(O[C@@H]2CCN(c3ccnc(NC4CCCC4)n3)C2)cc1 | 5.99 |
| CC(=O)N[C@@H](C)c1ccc(O[C@@H]2CCN(c3nc(OCC(C)C)ncc3F)C2)cc1 | 6.11 |
| CCCN(C)c1cc(N2CC[C@@H](Oc3ccc([C@H](C)NC(C)=O)cc3)C2)ncn1 | 6.06 |
| CCCNc1ncnc(N2CC[C@@H](Oc3ccc([C@H](C)NC(=O)c4sc(NC(=O)CC)nc4C)cc3)C2)c1Cl | 6.54 |
| CC(=O)N[C@@H](C)c1ccc(O[C@@H]2CCN(c3ncnc(N(C)C4CCCC4)c3F)C2)cc1 | 7.05 |
| CCN(CC)c1ncnc(N2CC[C@@H](Oc3ccc([C@H](C)NC(C)=O)cc3)C2)c1C | 6.74 |
| CNC(=O)N[C@@H](C)c1ccc(OC2CCN(c3ncnc(OCC4CC4)c3F)C2)cc1 (stereo partly drawn) | 6.96 |
| CCN(C)c1nccc(N2CCC(Oc3ccc([C@H](C)NC(=O)OC)cc3)C2)n1 (stereo partly drawn) | 7.12 |
| C[C@H](NC(=O)c1cncs1)c1ccc(O[C@@H]2CCN(c3nccc(N4CCOCC4)n3)C2)cc1 | 6.54 |

====

- Target or test system: human ACC2 (Homo sapiens (Human), UniProt O00763)
- Experimental details: ACC2 assay (spectrophotometric 384 well assay, NADH-linked kinetic method)
- Type: biochemical
- Measurement conditions: hACC2 construct lacking 128 N-terminal amino acids; coupled lactate dehydrogenase/pyruvate kinase reaction, 340 nm, 25° C.
pIC50: −log10 of the molar value.

| Molecule | pIC50 |
| --- | --- |
| CC(=O)N[C@@H](C)c1ccc(O[C@@H]2CCN(c3ncnc(NCC4CCCCO4)c3Cl)C2)cc1 (stereo partly shown) [Example 8.316] | 6.24 |
| CC(=O)N[C@@H](C)c1ccc(O[C@@H]2CCN(c3ccnc(C(F)(F)F)n3)C2)cc1 [Example 6.21] | 6.52 |
| CCCN(CCC#N)c1nccc(N2CC[C@@H](Oc3ccc([C@H](C)NC(C)=O)cc3)C2)n1 [Example 8.109] | 6.61 |
| C[C@H](NC(=O)C1CC1)c1ccc(O[C@@H]2CCN(c3nc(N4CCOCC4)ncc3F)C2)cc1 [Example 10.5] | 6.53 |
| C[C@H](NC(=O)N(C)C)c1ccc(OC2CCN(c3ccnc(N(C)CC(F)F)n3)C2)cc1 (stereo partly shown) [Example 3.1] | 7.40 |
| CCCOc1ncnc(N2CC[C@@H](Oc3ccc([C@H](C)NC(C)=O)cc3)C2)c1C [Example 7.23] | 6.92 |
| CC(=O)N[C@@H](C)c1ccc(O[C@@H]2CCN(c3nc(N4CCC[C@H]4C)ncc3Cl)C2)cc1 [Example 8.285] | 7.05 |
